tested on: K-562 leukemia; assay: NCI tumour cell line growth inhibition, 48 h; in the data active means GI50 below about 0.43 µM; inactive means the rest
Outcome codes: class 1 for active, class 0 for inactive

molecule	targetOrTestSystem	assignedLabel
CCCCCCCCn1ccc2cc(NC(=O)Cn3cc(CN4CCN(CC)CC4)nn3)ccc21	K-562 leukemia	class 0
COC(=O)N[C@H]1C=C[C@@H]2/C=C(C)/C=C/[C@@H](C)[C@H]([C@H](C)[C@H](O)[C@@H](C)NC(C)=O)OC(=O)/C=C/C=C(C)\C=C\[C@]2(C)C1	K-562 leukemia	class 1
COc1ccc2c(c1OC)C(=O)OC2C1c2c(c(N)c3c(c2OC)OCO3)CCN1C (centres undefined)	K-562 leukemia	class 0
Cn1cc(-c2csc(-c3c[nH]c4ccccc34)n2)c2cccnc21	K-562 leukemia	class 1
COc1ccc(C(O)c2cc3c(N)c(C(=O)Nc4ccccc4)sc3nc2C)cc1 (centres undefined)	K-562 leukemia	class 1
C#CC#CC#CC#CC#CC#CC#CC#CC[C@@H]1OC[C@H](COC(=O)O[C@@H](C(=O)O[C@H]2C[C@@]3(O)[C@@H](OC(=O)c4ccccc4)[C@@H]4[C@]5(OC(C)=O)CO[C@@H]5C[C@H](O)[C@@]4(C)C(=O)[C@H](OC(C)=O)C(=C2C)C3(C)C)[C@@H](NC(=O)c2ccccc2)c2ccccc2)O1	K-562 leukemia	class 0
CCC(C)CN=C(N)c1ccc(N2CCN(c3ccc(C(N)=NCC(C)CC)cc3)CC2)cc1 (centres undefined)	K-562 leukemia	class 0
COc1ccc2nc3c(n2c1)C(=O)C(=O)c1ccccc1-3	K-562 leukemia	class 0
CC(=O)/C(=C\c1c(-c2ccccc2)[nH]c2ccccc12)S(C)(=O)=O	K-562 leukemia	class 0

###

system: CCRF-CEM leukemia; experiment: NCI tumour cell line growth inhibition, 48 h; in the data active means GI50 below about 0.43 µM; inactive means the rest
Outcome codes: active, inactive

                                    compound  assignedlabel
 0  CCNC(=O)N1CCc2c(Cl)c3c(c(OC)c2[C@@H]1[C@H]1OCc2c1ccc(OC)c2OC)OCCO3       inactive
 1  COc1ccc(/C=C(/C(=O)N2CCCCC2)c2cc(OC)c(OC)c(OC)c2)cc1       inactive
 2  NS(=O)(=O)c1ccc(N=Nc2c(O)[nH]c3ccc(Cl)cc23)cc1       inactive
 3  COc1ccc2c(c1OC)C(=O)OC2C1c2c(c(N)c3c(c2OC)OCO3)CCN1C (configuration not stated)       inactive
 4  Cn1cc(C2=C(n3ccc4ccccc43)C(=O)NC2=O)c2ccccc21       inactive
 5    O=c1[nH]nc(-c2nn(-c3ccc(Cl)cc3)cc2O)o1         active
 6  COc1ccc(C2NC(=O)c3cc4c(cc3N2)OCO4)cc1 (configuration not stated)       inactive
 7  C=C(C)[C@@H]1CC[C@]2(C(N)=O)CC[C@]3(C)[C@H](CC[C@@H]4[C@@]5(C)C/C(=C/c6cccnc6)C(=O)C(C)(C)[C@@H]5CC[C@]43C)[C@@H]12       inactive
 8  Cn1cc(-c2csc(-c3c[nH]c4ccccc34)n2)c2cccnc21       inactive
 9  COc1cc2c(cc1OCCCCCN1CCN(CCCCCOc3cc4c(cc3OC)C(=O)C3CCC[C@H]3C=N4)CC1)N=C[C@@H]1CCCC1C2=O (some centres not stated)       inactive
10  Cc1cccc(-n2cnc3cc(C(=O)N4CCCCC4)ccc32)c1       inactive
11  O=S(=O)(Nc1cc(F)cc(F)c1)c1ccc(-c2cnc(C3CC3)o2)cc1       inactive

###

system: DMS 114 small cell lung; assay: NCI tumour cell line growth inhibition, 48 h
Known TGI of a selection of molecules
assayMetric: TGI

>>> df
                                   molecule       val
0  CCOC(=O)C1=C(C)N2CCOC2(C)C(C(=O)OC)C1c1cccc(Cl)c1 (centres undefined)  > 100 µM
1  Cn1cc(NC(=O)c2cc(NC(=O)CCCCCCCCCC(=O)Nc3cc(C(=O)Nc4cc(C(=O)NCCC(=N)N)n(C)c4)n(C)c3)cn2C)cc1C(=O)NCCC(=N)N  > 100 µM
2  COC(=O)[C@]1(C)CCC[C@]2(C)C3CC4OOC3(C=C4C(C)(C)O)CCC21 (some centres undefined)  > 100 µM
3  CCN(CC)c1c(C(=O)/C=C/c2ccc(F)cc2)c(-c2ccccc2)nn(C)c1=O   19.2 µM

###

tested on: T-47D breast; assay: NCI tumour cell line growth inhibition, 48 h; in the data active = GI50 below about 0.43 µM; inactive = the rest
Outcome codes: active, inactive

                                   compound  assignedlabel
0  CCC(C)CN=C(N)c1ccc(N2CCN(c3ccc(C(N)=NCC(C)CC)cc3)CC2)cc1 (configuration not stated)       inactive
1  CCNCCNc1cc(-c2ccc(Cl)c(Cl)c2)c(C#N)c2nc3ccccc3n12       inactive
2  O=c1cc(/C=C/c2ccc(O)c(O)c2)cc(/C=C/c2ccc(O)c(O)c2)o1       inactive
3            O=C(NNC(=O)c1ccccc1S)c1ccccc1S       inactive
4  COc1ccc(C2NC(=O)c3cc4c(cc3N2)OCO4)cc1 (configuration not stated)       inactive
5  Oc1ccc2c(c1)OCC1(O)Cc3cc(O)c(O)cc3C21 (configuration not stated)       inactive
6  COc1ccc(C(O)c2cc3c(N)c(C(=O)Nc4ccccc4)sc3nc2C)cc1 (configuration not stated)         active

###

Known log10 TGI of a selection of compounds
system: HS 578T breast; assay: NCI tumour cell line growth inhibition, 48 h
assayMetric: log10 TGI (log10 of the value in µM)

compound	log10 TGI
CCOc1ccccc1C(=O)/C=C/c1cc2ccccc2[nH]c1=O	-1.03
COc1ccc2c(c1OC)OC[C@@H](C1=CC(=O)C=C(O)C1=O)C2	1.78
COc1ccc2c(c1OC)C(=O)OC2C1c2c(c(N)c3c(c2OC)OCO3)CCN1C (stereo not drawn)	0.97
COC(=O)[C@]12CC[C@@H](C)[C@H](C)[C@@H]1C1=CC[C@@H]3[C@@]4(C)C[C@@H](OC(C)=O)[C@H](O)[C@@](C)(CO)[C@@H]4[C@H](O)C[C@@]3(C)[C@]1(C)CC2	1.47
CCCCCCC(O)(c1ccc(F)cc1)C(CN1CCOCC1)c1ccccc1 (stereo not drawn)	1.60
COc1cc(C2c3cc4c(cc3[C@@H](Nc3ccc(F)cc3)C3CO[C@@H](O)[C@H]23)OCO4)cc(OC)c1O (stereo partly drawn)	1.17
c1ccc2c(c1)N[C@@H]1c3[nH]c4ccccc4c3CC[C@H]21	1.41

###

system: HCT-116 colon; test: NCI tumour cell line growth inhibition, 48 h
Known TGI of a selection of compounds
assayMetric: TGI (µM)

In [3]: df
Out[3]:
                                   compound  assaymetric  comparisonoperator   val
0  CCCCCCCCCCCCC(CC)CCCCC(=O)O (stereo not given)          TGI                   >   100
1  COc1ccc(C(O)c2cc3c(N)c(C(=O)Nc4ccccc4)sc3nc2C)cc1 (stereo not given)          TGI                   >  35.4
2  O=S(=O)(Nc1cc(F)cc(F)c1)c1ccc(-c2cnc(C3CC3)o2)cc1          TGI                   >   100
3  CCCCNC(=O)OCCN=C1c2ccccc2C(Br)C(Br)c2ccccc21 (stereo not given)          TGI                   =  60.5
4  CN(C)[C@@H]1C(=O)C(C(=O)NCN2CCN(C(=N)N=C(N)N)CC2)=C(O)[C@@]2(O)C(=O)C3=C(O)c4c(O)cccc4[C@@](C)(O)[C@H]3C[C@@H]12          TGI                   =  17.8

###

system: UACC-62 melanoma; experiment: NCI tumour cell line growth inhibition, 48 h
Known TGI of a selection of compounds
assayMetric: TGI

>>> print(df.to_string())
                                    compound       val
 0  N/N=c1\c2ccccc2c2ccc3c4ccccc4/c(=N\N)c3c12  > 100 µM
 1  O=C(O)C(CO)N=Cc1nc(-c2ccccc2)oc1O (stereo unspecified)  > 100 µM
 2  CCCCC1(C2c3ccccc3Oc3ccccc32)C(=O)N(c2ccccc2)N(c2ccccc2)C1=O  > 100 µM
 3        COc1ccc(-c2csc(=[N+]3CCCCC3)s2)cc1   24.1 µM
 4              N#CNC(=NCc1ccccc1)NCc1ccccc1  > 100 µM
 5  CCOC(=O)c1cc(C)n(CN(CCO)Cn2nc(C(=O)OCC)cc2C)n1   38.2 µM
 6  CCCCCCCC/C(=C\C1=C(C)C(=O)C(OC)=C(OC)C1=O)C(=O)O  > 100 µM
 7  CC1(O)C(C)(O)C(C)(O)C1(C)O (stereo unspecified)  > 100 µM
 8  COc1cc(Br)c(CC2C3=C(CCN2C(=O)C2CCC2)CC2(CC3)OCCO2)cc1O (stereo unspecified)  > 100 µM
 9  CN1C(=O)N(C)C2(O)c3ccccc3C(=O)C12O (stereo unspecified)  > 100 µM
10    O=c1[nH]nc(-c2nn(-c3ccc(Cl)cc3)cc2O)o1   2.82 µM
